system: VEEV (TC-83); assay: microbe, parasite or virus in culture; format: cell-based, Venezuelan Equine Encephalitis virus; details: Venezuelan equine encephalitis virus, U-87 MG, 18 h, read-out: VEEV Inhibition EC90
The entries below are paired with their reported EC90.

compound | targetOrTestSystem | EC90
Fc1cc2cn[nH]c2cc1Nc1ccnc2ccc(Br)cc12 [Compound 50] | VEEV (TC-83) | 9.6 µM

Prompt line: Return reported EC90; argument: CNc1cccc(Nc2ccnc3ccc(Br)cc23)c1 [Compound 21]
Response line: 10.7 µM

Prompt line: # iterate: O=C1NCc2ccc(Nc3ccnc4ccc(Br)cc34)cc21 [Compound 52]
Response line: > 10 µM

Prompt line: And what about the compound CCN(CC)CCNC(=O)c1c(C)[nH]c(/C=C2\C(=O)Nc3ccc(F)cc32)c1C [Sunitinib, sunitinib, reference compound] ?
Response line: > 10 µM

Prompt line: What about COc1cccc(Nc2ccnc3ccc(C(F)(F)F)cc23)c1 [Compound 4] ?
Response line: > 10 µM

Prompt line: Same again, this time with Oc1cccc(Nc2ccnc3ccc(Br)cc23)c1 [Compound 12, 3-((6-bromoquinolin-4-yl)amino)phenol]
Response line: > 10 µM

---

tested on: DENV2; assay: microbe, parasite or virus in culture; type: cell-based, dengue virus (DENV2, New Guinea C strain); conditions: Dengue virus, DENV2, Huh-7, 48 h, read-out: DENV Inhibition EC90
Please use Y for EC90 under 2000 nM and N for everything else, ties included.

These solved cases illustrate the format of a correct answer.
compound | class
COc1cccc(Nc2ccnc3ccc(C(F)(F)F)cc23)c1 [Compound 4] | Y
Fc1cc2cn[nH]c2cc1Nc1ccnc2ccc(Br)cc12 [Compound 50] | N

Prompt line: Would you kindly verify if EC90 of CNc1cccc(Nc2ccnc3ccc(Br)cc23)c1 [Compound 21] is strictly less than 2000 nM?
Response line: Y

Prompt line: Also need Oc1cccc(Nc2ccnc3ccc(Br)cc23)c1 [Compound 12, 3-((6-bromoquinolin-4-yl)amino)phenol] , thanks.
Response line: N

Prompt line: Continue with O=C1NCc2ccc(Nc3ccnc4ccc(Br)cc34)cc21 [Compound 52]
Response line: Y

Prompt line: What do we get for CCN(CC)CCNC(=O)c1c(C)[nH]c(/C=C2\C(=O)Nc3ccc(F)cc32)c1C [Sunitinib, sunitinib, reference compound] ?
Response line: N

---

test system: DENV2; test: microbe, parasite or virus in culture; assay type: cell-based, dengue virus (DENV2, New Guinea C strain); conditions: read-out: DENV Inhibition EC50
quantityName: EC50 (µM)
Provide the reading as a plain figure in µM.

smilesNotation | unitLabel | assayValue
Cn1ncc2c(Nc3ccnc4ccc(Br)cc34)cccc21 | µM | 5.4

Now look at this entry.
Prompt line: Quick check: EC50 of Cn1nnc2c(Nc3ccnc4ccc(Br)cc34)cccc21 ?
Response line: 5.5

---

A collection of molecules and their measured CC50
test: in vitro; settings: human

Consider the reported CC50 for these molecules:
molecule | assayValue
Fc1cc2cn[nH]c2cc1Nc1ccnc2ccc(Br)cc12 | > 10 µM
CNc1cccc(Nc2ccnc3ccc(C(F)(F)F)cc23)c1 | > 10 µM
O=[N+]([O-])c1cccc(Nc2ccnc3ccc(Br)cc23)c1 | > 10 µM
Brc1ccc2nccc(Nc3cccc4c3OCO4)c2c1 | > 10 µM
Brc1ccc2nccc(Nc3ccc4c(c3)OCO4)c2c1 | 8.6 µM

Prompt line: For the molecule CCN(CC)CCNC(=O)c1c(C)[nH]c(/C=C2\C(=O)Nc3ccc(F)cc32)c1C [Sunitinib, sunitinib, reference compound] , what CC50 is on record?
Response line: > 10 µM

Prompt line: Next record, please: O=c1[nH]c2cc(Nc3ccnc4ccc(Br)cc34)ccc2o1
Response line: > 10 µM

Prompt line: Same read-out for CC(C)(C)Oc1cccc(Nc2ccnc3ccc(Br)cc23)c1 ?
Response line: 9.2 µM

Prompt line: One more molecule: Brc1ccc2nccc(Nc3cccc4ncoc34)c2c1
Response line: > 10 µM

---

assay: in vitro; conditions: human
Quick reference for CC50 among some compounds

Answered cases to consult:
smilesNotation | CC50
Oc1cccc(Nc2ccnc3ccccc23)c1 | > 10 µM
COc1cccc(Nc2ccnc3ccccc23)c1 | > 10 µM
CN(C)c1cccc(Nc2ccnc3ccc(C(F)(F)F)cc23)c1 | > 10 µM
COc1cccc(Nc2ccnc3ccc(C(F)(F)F)cc23)c1 | > 10 µM
CC(C)(C)c1cccc(Nc2ccnc3ccc(Br)cc23)c1 | 6 µM
COc1cccc(Nc2ccnc3ccc(OC)cc23)c1 | > 10 µM
Brc1ccc2nccc(Nc3cccc4c3COC4)c2c1 | > 10 µM
Oc1cccc(Nc2ccnc3ccc(Br)cc23)c1 | > 10 µM
CN(C)c1cccc(Nc2ccnc3ccc(Br)cc23)c1 | > 10 µM
FC1(F)Oc2cccc(Nc3ccnc4ccc(Br)cc34)c2O1 | > 10 µM

Prompt line: Can you look up the measured CC50 of Nc1cccc(Nc2ccnc3ccc(Br)cc23)c1 for me?
Response line: > 10 µM

Prompt line: Then what about the compound Nc1cccc(Nc2ccnc3ccc(C(F)(F)F)cc23)c1 ?
Response line: > 10 µM

Prompt line: Try this compound too: FS(F)(F)(F)(F)c1cccc(Nc2ccnc3ccc(Br)cc23)c1
Response line: > 10 µM

---

# CC50 values compiled below
experiment: in vitro; settings: human

Example entries and their recorded answers appear below.
smilesNotation | assayValue
COc1cccc(Nc2ccnc3ccc(S(C)(=O)=O)cc23)c1 | > 10 µM
Brc1ccc2nccc(Nc3cccc4scnc34)c2c1 | > 10 µM
Oc1cccc(Nc2ccnc3ccc(C(F)(F)F)cc23)c1 | > 10 µM
CS(=O)(=O)c1ccc2nccc(Nc3cccc(O)c3)c2c1 | > 10 µM
Brc1ccc2nccc(Nc3cccc4sccc34)c2c1 | > 10 µM
O=[N+]([O-])c1cccc(Nc2ccnc3ccc(C(F)(F)F)cc23)c1 | > 10 µM

API: the following record is the query input.
Prompt line: Find the recorded CC50 belonging to Brc1ccc2nccc(Nc3ccc4cn[nH]c4c3)c2c1 and report it.
Response line: > 10 µM
